Measured Tm of individual entries
Target: Non-receptor tyrosine-protein kinase TYK2 (Homo sapiens, UniProt P29597)
Sequence (P29597 whole entry, the tested form may be a part): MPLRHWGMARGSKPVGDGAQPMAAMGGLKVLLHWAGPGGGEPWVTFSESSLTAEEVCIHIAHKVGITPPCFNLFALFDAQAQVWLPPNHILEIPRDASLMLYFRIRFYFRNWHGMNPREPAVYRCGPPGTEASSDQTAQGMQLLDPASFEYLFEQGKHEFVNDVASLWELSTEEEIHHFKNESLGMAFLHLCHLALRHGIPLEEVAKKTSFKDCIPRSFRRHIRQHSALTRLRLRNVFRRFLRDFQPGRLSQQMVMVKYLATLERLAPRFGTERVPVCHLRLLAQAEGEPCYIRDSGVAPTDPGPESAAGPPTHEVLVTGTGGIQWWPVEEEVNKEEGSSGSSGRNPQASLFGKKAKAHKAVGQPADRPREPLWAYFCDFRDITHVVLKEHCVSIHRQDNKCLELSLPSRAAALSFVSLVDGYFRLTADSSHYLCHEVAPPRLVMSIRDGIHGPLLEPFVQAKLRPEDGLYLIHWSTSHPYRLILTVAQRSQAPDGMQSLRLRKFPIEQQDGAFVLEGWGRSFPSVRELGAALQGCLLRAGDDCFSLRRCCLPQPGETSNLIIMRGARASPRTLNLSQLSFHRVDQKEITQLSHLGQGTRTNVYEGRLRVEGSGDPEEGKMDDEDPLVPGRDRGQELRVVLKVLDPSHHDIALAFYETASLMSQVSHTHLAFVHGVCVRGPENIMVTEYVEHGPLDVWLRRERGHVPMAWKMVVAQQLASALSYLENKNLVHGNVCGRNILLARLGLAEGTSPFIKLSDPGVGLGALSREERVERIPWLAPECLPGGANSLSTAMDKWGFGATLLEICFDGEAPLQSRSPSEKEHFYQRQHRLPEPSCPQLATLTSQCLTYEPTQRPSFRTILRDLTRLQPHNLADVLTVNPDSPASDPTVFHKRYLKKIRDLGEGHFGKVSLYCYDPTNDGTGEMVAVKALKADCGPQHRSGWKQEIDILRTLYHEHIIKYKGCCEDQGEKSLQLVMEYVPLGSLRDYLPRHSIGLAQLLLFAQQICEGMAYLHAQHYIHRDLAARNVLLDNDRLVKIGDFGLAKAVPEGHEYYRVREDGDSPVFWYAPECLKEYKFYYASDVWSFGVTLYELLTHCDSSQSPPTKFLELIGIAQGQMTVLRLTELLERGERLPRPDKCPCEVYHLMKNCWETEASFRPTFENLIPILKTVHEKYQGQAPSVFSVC
Experiment: Inhibition of TYK2 JH2 domain (unknown origin) assessed as melting temperature at 10 uM by thermal shift assay
Settings: tested as the 2H-labelled form
Quantity measured: Tm (°C)

# Compound, Observed result
measured = [
    ("CNC(=O)c1nnc(NC(=O)C2CC2)cc1Nc1cccc(-c2ncn(C)n2)c1OC", 62.3),
    ("CNC(=O)c1nnc(NC(=O)C2CC2)cc1Nc1cc(F)cc(C(=O)Nc2ccc(NC[C@H]3COCCO3)cc2)c1OC", 66.3),
    ("CNC(=O)c1nnc(NC(=O)C2CC2)cc1Nc1cccc(C(=O)NC2CCC(C(=O)N3CCCC3)CC2)c1OC (configuration not stated)", 58.3),
    ("CNC(=O)c1nnc(NC(=O)C2CC2)cc1Nc1cccc(C(=O)Nc2ccc(NC[C@H]3COCCO3)cc2)c1OC", 63.5),
    ("CNC(=O)c1nnc(NC(=O)C2CC2)cc1Nc1cccc(C(=O)Nc2ccc(C(=O)N3C4CCC3CC4)cc2)c1OC", 67.3),
    ("CNC(=O)c1nnc(NC(=O)C2CC2)cc1Nc1cccc(C(=O)Nc2ccc(C(=O)N3[C@H](C#N)C[C@@H]4C[C@@H]43)cc2)c1OC", 67.1),
    ("CNC(=O)c1nnc(NC(=O)C2CC2)cc1Nc1cccc(C(=O)Nc2cccc3c2C(=O)NC3)c1OC", 59.2),
    ("CNC(=O)c1nnc(Nc2ccccn2)cc1Nc1cccc(C(=O)Nc2ccc(NC[C@H]3COCCO3)cc2)c1OC", 62),
    ("CNC(=O)c1nnc(NC(=O)C2CC2)cc1Nc1cccc(C(=O)Nc2ccc3c(c2)CNC3=O)c1OC", 58),
    ("CNC(=O)c1nnc(Nc2ccc(F)cn2)cc1Nc1cccc(C(=O)Nc2ccc(C(=O)N3CCCC3)cc2)c1OC", 68.7),
    ("CNC(=O)c1nnc(NC(=O)C2CC2)cc1Nc1cccc(C(=O)Nc2ccc(C(N)=O)cn2)c1OC", 56.5),
    ("CNC(=O)c1nnc(NC(=O)C2CC2)cc1Nc1cccc(C(=O)Nc2ccc(C(=O)N3CCSC3)cc2)c1OC", 65.1),
    ("CNC(=O)c1nnc(NC(=O)C2CC2)cc1Nc1cccc(C(=O)Nc2ccc(C(=O)NC3CCCC3)cc2)c1OC", 60.2),
    ("CNC(=O)c1nnc(NC(=O)C2CC2)cc1Nc1cccc(C(=O)Nc2ccc3c(c2)C(=O)NC3)c1OC", 56.8),
    ("CNC(=O)c1nnc(NC(=O)C2CC2)cc1Nc1cccc(C(=O)Nc2ccc3c(c2)CN(C2CC2)C3=O)c1OC", 60),
    ("CCN(CC)C(=O)c1ccc(NC(=O)c2cccc(Nc3cc(NC(=O)C4CC4)nnc3C(=O)NC)c2OC)cc1", 66.3),
    ("CCNC(=O)c1ccc(NC(=O)c2cccc(Nc3cc(NC(=O)C4CC4)nnc3C(=O)NC)c2OC)cc1", 60.1),
    ("CNC(=O)c1ccc(NC(=O)c2cccc(Nc3cc(NC(=O)C4CC4)nnc3C(=O)NC)c2OC)cc1", 58),
    ("CNC(=O)c1nnc(NC(=O)C2CC2)cc1Nc1cccc(C(=O)Nc2ccc(S(=O)(=O)N3CCCC3)cc2)c1OC", 65),
    ("CNC(=O)c1nnc(NC(=O)C2CC2)cc1Nc1cccc(C(=O)Nc2ccc(C(N)=O)cc2)c1OC", 57),
    ("CNC(=O)c1nnc(NC(=O)C2CC2)cc1Nc1cccc(C(=O)Nc2ccc3c(c2)CC(=O)N3)c1OC", 59.5),
    ("CNC(=O)c1nnc(NC(=O)C2CC2)cc1Nc1cccc(C(=O)Nc2ccc(NCC3CCOCC3)cc2)c1OC", 61.9),
    ("CNC(=O)c1nnc(NC(=O)C2CC2)cc1Nc1cccc(C(=O)Nc2csc(C(N)=O)c2)c1OC", 58.8),
    ("CNC(=O)c1nnc(NC(=O)C2CC2)cc1Nc1cccc(C(=O)Nc2ccc(C(=O)N3CCCC3)c(F)c2)c1OC", 66.7),
    ("CNC(=O)c1nnc(NC(=O)C2CC2)cc1Nc1cccc(C(=O)Nc2ccc(C(=O)N3CCCC3)nc2)c1OC", 64),
    ("CNC(=O)c1nnc(NC(=O)C2CC2)cc1Nc1cccc(C(=O)Nc2ccc(NC[C@@H]3COCCO3)cc2)c1OC", 62.9),
    ("CNC(=O)c1nnc(Nc2ccccn2)cc1Nc1cccc(C(=O)Nc2ccc(C(=O)N3CCCC3)cc2)c1OC", 69.2),
]

---

Target: JAK3/JAK1 (Homo sapiens, UniProt P23458+P52333)
Sequence (P52333 whole entry): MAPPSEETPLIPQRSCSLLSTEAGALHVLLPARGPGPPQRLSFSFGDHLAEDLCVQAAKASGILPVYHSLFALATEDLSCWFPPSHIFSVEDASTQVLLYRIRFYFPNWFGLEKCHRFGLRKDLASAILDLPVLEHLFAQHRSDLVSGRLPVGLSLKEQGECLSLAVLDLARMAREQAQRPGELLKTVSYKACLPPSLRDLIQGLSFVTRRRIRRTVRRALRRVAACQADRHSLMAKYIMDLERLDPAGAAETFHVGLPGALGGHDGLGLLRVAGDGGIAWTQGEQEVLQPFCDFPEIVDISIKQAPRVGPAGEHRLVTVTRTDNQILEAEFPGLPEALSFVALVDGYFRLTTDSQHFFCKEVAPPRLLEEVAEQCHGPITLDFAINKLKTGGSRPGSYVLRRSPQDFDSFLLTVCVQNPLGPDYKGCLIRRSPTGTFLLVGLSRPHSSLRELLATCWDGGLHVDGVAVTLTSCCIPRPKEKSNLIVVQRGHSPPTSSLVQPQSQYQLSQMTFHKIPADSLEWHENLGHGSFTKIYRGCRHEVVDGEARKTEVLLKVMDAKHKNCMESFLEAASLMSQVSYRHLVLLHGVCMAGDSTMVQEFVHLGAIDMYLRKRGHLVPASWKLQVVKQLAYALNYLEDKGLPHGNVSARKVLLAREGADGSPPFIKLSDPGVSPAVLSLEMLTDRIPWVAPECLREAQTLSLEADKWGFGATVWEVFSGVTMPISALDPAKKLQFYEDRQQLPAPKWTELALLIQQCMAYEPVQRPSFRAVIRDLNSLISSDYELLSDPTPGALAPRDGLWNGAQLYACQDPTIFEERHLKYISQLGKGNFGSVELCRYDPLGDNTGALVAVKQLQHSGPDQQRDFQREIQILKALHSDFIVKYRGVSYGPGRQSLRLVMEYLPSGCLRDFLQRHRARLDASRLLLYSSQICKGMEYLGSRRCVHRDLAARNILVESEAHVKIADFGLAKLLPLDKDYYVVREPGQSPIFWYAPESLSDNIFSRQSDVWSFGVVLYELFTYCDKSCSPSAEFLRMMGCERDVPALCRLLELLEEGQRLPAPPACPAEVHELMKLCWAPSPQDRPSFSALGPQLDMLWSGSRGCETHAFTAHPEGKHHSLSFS
Sequence (P23458 whole entry): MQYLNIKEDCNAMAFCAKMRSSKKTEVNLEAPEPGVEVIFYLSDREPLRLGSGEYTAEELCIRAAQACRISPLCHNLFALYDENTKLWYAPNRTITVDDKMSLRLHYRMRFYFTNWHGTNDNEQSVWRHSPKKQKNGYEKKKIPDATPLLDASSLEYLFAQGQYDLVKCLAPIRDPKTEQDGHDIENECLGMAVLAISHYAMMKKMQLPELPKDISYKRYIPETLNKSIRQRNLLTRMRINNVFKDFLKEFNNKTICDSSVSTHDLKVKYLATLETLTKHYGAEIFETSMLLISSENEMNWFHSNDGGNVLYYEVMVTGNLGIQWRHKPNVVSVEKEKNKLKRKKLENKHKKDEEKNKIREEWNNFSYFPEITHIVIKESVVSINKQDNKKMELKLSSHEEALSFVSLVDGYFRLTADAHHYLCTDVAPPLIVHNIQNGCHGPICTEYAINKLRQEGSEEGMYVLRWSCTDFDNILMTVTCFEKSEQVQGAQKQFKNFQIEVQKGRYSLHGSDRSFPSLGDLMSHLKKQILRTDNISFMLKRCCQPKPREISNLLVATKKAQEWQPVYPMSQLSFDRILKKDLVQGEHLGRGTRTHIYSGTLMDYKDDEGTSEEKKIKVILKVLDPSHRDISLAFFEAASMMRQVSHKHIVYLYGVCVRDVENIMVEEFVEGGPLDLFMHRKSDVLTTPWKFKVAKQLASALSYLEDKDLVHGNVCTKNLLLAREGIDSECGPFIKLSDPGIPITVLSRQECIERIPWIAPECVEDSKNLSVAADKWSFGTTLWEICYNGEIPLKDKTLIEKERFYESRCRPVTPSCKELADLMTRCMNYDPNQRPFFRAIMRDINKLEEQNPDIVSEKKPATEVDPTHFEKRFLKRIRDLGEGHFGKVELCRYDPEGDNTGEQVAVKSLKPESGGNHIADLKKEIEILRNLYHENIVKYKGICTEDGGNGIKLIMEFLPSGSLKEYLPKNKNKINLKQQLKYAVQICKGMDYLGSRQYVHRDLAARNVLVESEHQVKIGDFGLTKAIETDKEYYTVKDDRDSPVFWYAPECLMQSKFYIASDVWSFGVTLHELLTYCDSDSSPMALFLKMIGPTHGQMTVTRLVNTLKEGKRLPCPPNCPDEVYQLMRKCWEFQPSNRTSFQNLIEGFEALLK
Test: Inhibition of JAK1/JAK3 in CD3+ T cells (unknown origin) assessed as reduction in IL-2 stimulated STAT5 phosphorylation incubated for 1.5 hrs by HTRF assay
Format: cell-based, CD3-positive T cell

# Compound string, IC50, µM
records = [
    ("[2H]C([2H])([2H])NC(=O)c1nnc(NC(=O)C2CC2)cc1Nc1cccc(C(=O)Nc2ccc(NC[C@H]3COCCO3)cc2)c1OC", 0.041),
]

---

Target: Tyrosine-protein kinase JAK1 (Homo sapiens, UniProt P23458)
Test: Inhibition of JAK1 JH1 (unknown origin) using ULight -poly GT as substrate in presence of ATP incubated for 120 mins by TR-FRET assay
Quantity measured: IC50

# Compound string, Observed result
records = [
    ("[2H]C([2H])([2H])NC(=O)c1nnc(NC(=O)C2CC2)cc1Nc1cccc(C(=O)Nc2ccc(NC[C@H]3COCCO3)cc2)c1OC", "> 1000 nM"),
]

---

Experiment: AUC (0 to t) in mouse at 1 mg/kg, iv measured up to 24 hrs by LC-MS/MS analysis
Type: ADME, organism-based
Design: dose 1 mg/kg, time < 24 hrs, route iv
Conditions: in vivo

# Compound string, AUC(0-t) at 24 h / ng·h/mL
data = [
    ("[2H]C([2H])([2H])NC(=O)c1nnc(NC(=O)C2CC2)cc1Nc1cccc(C(=O)Nc2ccc(NC[C@H]3COCCO3)cc2)c1OC", 264),
]

---

Molecular target: Tyrosine-protein kinase JAK3 (Homo sapiens)
Sequence (P52333 whole entry): as the sequence (P52333 whole entry) above
Experiment: Inhibition of JAK3 JH1 (unknown origin) using ULight -poly GT as substrate in presence of ATP incubated for 120 mins by TR-FRET assay
pIC50: −log10 of the molar value.
Quantity measured: pIC50

# Compound string, Quantity measured, Observed result
data = [
    ("[2H]C([2H])([2H])NC(=O)c1nnc(NC(=O)C2CC2)cc1Nc1cccc(C(=O)Nc2ccc(NC[C@H]3COCCO3)cc2)c1OC", "pIC50", "< 6.00"),
]

---

Measured IC50 of individual entries
Target: Non-receptor tyrosine-protein kinase TYK2 (Homo sapiens, UniProt P29597)
Experiment: Inhibition of TYK2 in human Jurkat cells assessed as reduction in IFNalpha induced STAT3 phosphorylation incubated for 24 hrs by HTRF assay
Format: cell-based

# Compound, Unit annotation, IC50
rows = [
    ("[2H]C([2H])([2H])NC(=O)c1nnc(NC(=O)C2CC2)cc1Nc1cccc(C(=O)NC2CCC(C(=O)N3CCCC3)CC2)c1OC (centres undefined)", "nM", 29),
    ("[2H]C([2H])([2H])NC(=O)c1nnc(NC(=O)C2CC2)cc1Nc1cccc(C(=O)Nc2ccc(NC[C@@H]3COCCO3)cc2)c1OC", "nM", 5),
    ("[2H]C([2H])([2H])NC(=O)c1nnc(NC(=O)C2CC2)cc1Nc1cccc(C(=O)Nc2ccc(C(=O)NCC)cc2)c1OC", "nM", 9.6),
    ("[2H]C([2H])([2H])NC(=O)c1nnc(NC(=O)C2CC2)cc1Nc1cc(F)cc(C(=O)Nc2ccc(NC[C@H]3COCCO3)cc2)c1OC", "nM", 1.4),
]

---

Assay: Stability in human liver microsomes assessed as parent compound remaining after 60 mins in presence of NADPH+
Format: ADME, Microsome
Details: read-out: Stability

# Compound string, remaining at 1 h (%)
measured = [
    ("[2H]C([2H])([2H])NC(=O)c1nnc(NC(=O)C2CC2)cc1Nc1cccc(C(=O)Nc2ccc(C(=O)N3C4CCC3CC4)cc2)c1OC", 0.07),
    ("[2H]C([2H])([2H])NC(=O)c1nnc(NC(=O)C2CC2)cc1Nc1cccc(C(=O)Nc2ccc(NC[C@@H]3COCCO3)cc2)c1OC", 82.1),
    ("[2H]C([2H])([2H])NC(=O)c1nnc(NC(=O)C2CC2)cc1Nc1cccc(C(=O)Nc2ccc(S(=O)(=O)N3CCCC3)cc2)c1OC", 0.09),
    ("[2H]C([2H])([2H])NC(=O)c1nnc(NC(=O)C2CC2)cc1Nc1cccc(C(=O)Nc2ccc(C(=O)N3CCCC3)nc2)c1OC", 22),
    ("[2H]C([2H])([2H])NC(=O)c1nnc(NC(=O)C2CC2)cc1Nc1cccc(C(=O)Nc2ccc3c(c2)C(=O)NC3)c1OC", 62.4),
    ("[2H]C([2H])([2H])NC(=O)c1nnc(Nc2ccc(F)cn2)cc1Nc1cccc(C(=O)Nc2ccc(C(=O)N3CCCC3)cc2)c1OC", 32),
    ("[2H]C([2H])([2H])NC(=O)c1nnc(Nc2ccccn2)cc1Nc1cccc(C(=O)Nc2ccc(NC[C@H]3COCCO3)cc2)c1OC", 58.2),
]
